These measurements were taken from PubChem BioAssay AID593.

# Assay Overview: qHTS Assay for Spectroscopic Profiling in Fluorescein Spectral Region
# Measurement Context: Compound autofluorescence, 480/540 nm; active compounds read high
Hit rate of the full screen: of about 59,000 compounds, about 540 (0.92%) were called active. Not shown: some 33% with an inconclusive outcome. This is one part of a sample in which actives are shown more often than they occur.
Below, each entry is listed alongside its reported max fluorescein-equivalent concentration.
Endpoint Name: max fluorescein-equivalent concentration

| Compound | Endpoint Name | Obs Value |
| --- | --- | --- |
| Nc1ccc2c3c(cccc13)C(=O)NC2=O | max fluorescein-equivalent concentration | 2000 nM (active) |
| Cc1cccn2c(=O)c3cc(C#N)c(=NC(=O)c4cccnc4)n(CC4CCCO4)c3nc12 (stereo unspecified) | max fluorescein-equivalent concentration | 18 nM (active) |
| CC[N+](C)(CC)CCC[n+]1c(-c2ccccc2)c2cc(N)ccc2c2ccc(N)cc21 | max fluorescein-equivalent concentration | 18 nM (active) |
| O=C(O)c1c(Br)c(Br)c(Br)c(Br)c1C1c2ccc(O)cc2Oc2cc(O)ccc21 | max fluorescein-equivalent concentration | 320 nM (active) |
| CCOC(=O)N1CC=C2C(C#N)=C(N)C(C#N)(C#N)[C@H](c3cccs3)[C@H]2C1 | max fluorescein-equivalent concentration | 12 nM (active) |
| Cc1cc2c(=O)n(C)c(SCC(=O)c3cc4ccccc4o3)nc2s1 | max fluorescein-equivalent concentration | 13 nM (active) |
| CN(c1ccccc1)c1ccc(/C=c2\s/c(=C(/C#N)C(=O)C(C)(C)C)n(Cc3ccco3)c2=O)cc1 | max fluorescein-equivalent concentration | 34 nM (active) |
| COc1ncnc2c1N=C1CC(C)(C)CC(N)=C1S2 | max fluorescein-equivalent concentration | 47 nM (active) |
| Cc1ccc(S(=O)(=O)C(C#N)c2nc3ccccc3nc2N2CCCC2)cc1C (stereo unspecified) | max fluorescein-equivalent concentration | 14 nM (active) |
| O=C(O)CS(=O)c1ccc2c3c(cccc13)C(=O)c1ccccc1-2 (stereo unspecified) | max fluorescein-equivalent concentration | 14 nM (active) |
| COc1ccccc1N1CCN(c2nc3ccccc3n3nnnc23)CC1 | max fluorescein-equivalent concentration | 12 nM (active) |
| CCN(CC)c1ccc2oc(=O)c(C)nc2c1 | max fluorescein-equivalent concentration | 140 nM (active) |
| CCn1c(=N)c(S(=O)(=O)c2ccc(F)cc2)cc2c(=O)n3ccccc3nc21 | max fluorescein-equivalent concentration | 29 nM (active) |
| O=c1[nH]c(=O)c2nc3ccccc3nc2[nH]1 | max fluorescein-equivalent concentration | 62 nM (active) |
| COc1ccc2oc(=O)c(C(=O)O)cc2c1 | max fluorescein-equivalent concentration | 19 nM (active) |
| CCCN1CC=C2C(C#N)=C(N)C(C#N)(C#N)C(c3cc(OC)ccc3OC)C2C1 (stereo unspecified) | max fluorescein-equivalent concentration | 10 nM (active) |
